meta.source: paper PMC6943434

- Test system: HeLa (cervical cancer cell line)
- procedure_text: MTT cell viability assay, HeLa
- Type: cell-based
- conditions: Homo sapiens, 48 h, read-out: Antiproliferative Activity IC50 ± SEM, HeLa
IC50 values for the compounds below.

compound	reported
O=C(NCCCCCCCCCCNC(=O)c1cc2ccccc2s1)c1cc2ccccc2s1 [Compound 22e]	> 20 µM
O=C(NCCCCCCCCCCNC(=O)c1cnccn1)c1cnccn1 [Compound 16e]	> 100 µM
Cc1nc(C)c(CN(CCO)Cc2nc(C)c(C)nc2C)nc1C	> 100 µM

Missing value: IC50, HeLa (cervical cancer cell line), entry Cc1nc(C)c(C(=O)NCCCCCCCCCCNC(=O)c2nc(C)c(C)nc2C)nc1C . Fill in?
1.42 µM

Entry O=C(/C=C/c1ccccc1)NCCCCCCCCCCCCNC(=O)/C=C/c1ccccc1 , system HeLa (cervical cancer cell line): what IC50 was measured?
> 20 µM

Recall the recorded IC50 for O=C(/C=C/c1ccccc1)NCCCCCCCCNC(=O)/C=C/c1ccccc1 with HeLa (cervical cancer cell line) and state it.
> 20 µM

State its IC50 on HeLa (cervical cancer cell line): Cc1nc(C)c(CN2CCN(Cc3nc(C)c(C)nc3C)CC2)nc1C
> 100 µM

Lab request: please report IC50 under test system HeLa (cervical cancer cell line) for COc1cc(OC)cc(C(=O)NCCCCCCCCCCNC(=O)c2cc(OC)cc(OC)c2)c1 [Compound 33e]
> 20 µM

Please state recorded IC50 (tested on HeLa (cervical cancer cell line)) of O=C(NCCCCCCCCCCNC(=O)c1ccccc1)c1ccccc1 [Compound 11e, N,N′-(Decane-1,10-Diyl)Dibenzamide]
> 100 µM
